Assay: isobaric coefficient of expansion
Conditions: 278.15 K; 10000 kPa; Liquid; DSC with Pressure Shift
experimental-endpoint: isobaric coefficient of expansion

What the record says about CCCC(C)O (stereo not given) [pentan-2-ol] : isobaric coefficient of expansion is 0.000858 1/K

Continuing:
In plain terms, CCCCCCO [hexan-1-ol] has a documented isobaric coefficient of expansion of 0.0008 1/K

Consider CCCCCO [pentan-1-ol] . Its measured isobaric coefficient of expansion is 0.000833 1/K

Given item CCC(O)CC [3-pentanol] , the value recorded as its isobaric coefficient of expansion is 0.000875 1/K

// isobaric coefficient of expansion lookup, molecule = CCCO [propan-1-ol] , result: 0.000901 1/K

# isobaric coefficient of expansion (molecule: CCCCCN [1-pentanamine] ) is 0.00107 1/K

According to the records, this molecule CCCCCCCO [heptan-1-ol] displays isobaric coefficient of expansion of 0.000779 1/K

# molecule CCO [ethanol] ; its isobaric coefficient of expansion = 0.000988 1/K

Data point: CCCCCCCCO [octan-1-ol] ; isobaric coefficient of expansion = 0.000798 1/K

Record CCCCCCCCCO [nonan-1-ol] . Reported isobaric coefficient of expansion: 0.000795 1/K

* * *

Test: isobaric coefficient of expansion
Settings: 348.15 K; 15000 kPa; Liquid; DSC with Pressure Shift
Entries annotated with measured isobaric coefficient of expansion

Sure, the documented isobaric coefficient of expansion for CCCCCCCCCCO [decan-1-ol] is 0.000832 1/K

Sure, the documented isobaric coefficient of expansion for CCCCCCCCCO [nonan-1-ol] is 0.000853 1/K

The reported isobaric coefficient of expansion of the compound CCCCCCCCO [octan-1-ol] was 0.000865 1/K

* * *

Parameter: isobaric coefficient of expansion. Scope: all listed entries.
Test: isobaric coefficient of expansion
Conditions: 348.15 K; 45000 kPa; Liquid; DSC with Pressure Shift

Item: "CCCCCCO" | isobaric coefficient of expansion: 0.000791 1/K

Lab book: isobaric coefficient of expansion of "CCCCCO" noted as 0.000807 1/K

Documented isobaric coefficient of expansion of "CCCO" : 0.000906 1/K

isobaric coefficient of expansion for "CCCCCCCO" is 0.000768 1/K

Looking up "CCO" , I see its isobaric coefficient of expansion listed as 0.000959 1/K

Entry CCCC(C)O (stereo unspecified) , isobaric coefficient of expansion reported as 0.000946 1/K

Lab book: isobaric coefficient of expansion of "CCC(O)CC" noted as 0.000986 1/K

isobaric coefficient of expansion reported for this molecule "CCCCCCCCO" : 0.000745 1/K

***
Record "CCCCCN" , field isobaric coefficient of expansion: 0.000954 1/K

Recorded isobaric coefficient of expansion (molecule "CCCCCCCCCCO" ): 0.000722 1/K

The recorded isobaric coefficient of expansion for entry "CCCCCCCCCO" equals 0.000734 1/K

* * *

Experiment: isobaric coefficient of expansion
Conditions: 338.15 K; 30000 kPa; Liquid; DSC with Pressure Shift
experimental-endpoint: isobaric coefficient of expansion

Entry "CCCCCCCO" — recorded isobaric coefficient of expansion = 0.000809 1/K

The reported isobaric coefficient of expansion of the compound "CCCCCCCCCO" was 0.000773 1/K

Kindly note the recorded isobaric coefficient of expansion for CCCC(C)O (stereo unspecified) , which is 0.000991 1/K

Please fill in: isobaric coefficient of expansion reported for "CCC(O)CC" = 0.00102 1/K

isobaric coefficient of expansion for "CCCCCCCCCCO" is 0.00076 1/K

More entries:
The value of isobaric coefficient of expansion measured for the compound "CCCCCCO" turned out to be 0.000832 1/K

# compound "CCCCCN" ; its isobaric coefficient of expansion = 0.00102 1/K

Quick note, isobaric coefficient of expansion for "CCCCCCCCO" landed at 0.000783 1/K

Per the record, "CCO" has isobaric coefficient of expansion of 0.00102 1/K

Measured isobaric coefficient of expansion of "CCCO" : 0.000951 1/K

Entry "CCCCCO" ; isobaric coefficient of expansion = 0.000847 1/K

* * *

Collected isobaric coefficient of expansion values appear next to each entry.
Test: isobaric coefficient of expansion
Settings: 308.15 K; 50000 kPa; Liquid; DSC with Pressure Shift

// worked examples, isobaric coefficient of expansion included
Lab book: isobaric coefficient of expansion of CCO [ethanol] noted as 0.000865 1/K

isobaric coefficient of expansion reported for this compound CCC(O)CC [3-pentanol] : 0.000852 1/K

// CCCO [propan-1-ol] : isobaric coefficient of expansion value = 0.000809 1/K

Quick note, isobaric coefficient of expansion for CCCC(C)O (stereo not drawn) [pentan-2-ol] landed at 0.000814 1/K

Measured isobaric coefficient of expansion of CCCCCCCO [heptan-1-ol] : 0.000705 1/K

Consider CCCCCCCCCO [nonan-1-ol] . Its measured isobaric coefficient of expansion is 0.000684 1/K

New cases:
In plain terms, CCCCCCCCO [octan-1-ol] has a documented isobaric coefficient of expansion of 0.000692 1/K

// recorded isobaric coefficient of expansion for CCCCCN [1-pentanamine] : 0.000929 1/K

* * *

Assay: isobaric coefficient of expansion
Settings: 288.15 K; 5000 kPa; Liquid; DSC with Pressure Shift
isobaric coefficient of expansion overview

Some molecules with known isobaric coefficient of expansion results, for comparison:
"CCO" yielded isobaric coefficient of expansion of 0.00103 1/K

Sure, the documented isobaric coefficient of expansion for "CCCCCO" is 0.000873 1/K

So, "CCC(O)CC" ? Its isobaric coefficient of expansion was 0.000935 1/K

---
The recorded isobaric coefficient of expansion for "CCCCCCCCCO" is 0.000805 1/K

Kindly note the recorded isobaric coefficient of expansion for "CCCCCN" , which is 0.00111 1/K

get_value(item= "CCCCCCCO" , readout=isobaric coefficient of expansion) returns 0.000815 1/K

Data point: "CCCCCCO" ; isobaric coefficient of expansion = 0.000837 1/K

Noted for "CCCO" : its isobaric coefficient of expansion reads 0.000947 1/K

Record CCCC(C)O (stereo not given) , field isobaric coefficient of expansion: 0.000922 1/K

Form: molecule = "CCCCCCCCO" ; isobaric coefficient of expansion = 0.000817 1/K

* * *

Assay: isobaric coefficient of expansion
Settings: 328.15 K; 30000 kPa; Liquid; DSC with Pressure Shift
isobaric coefficient of expansion values, listed per item

# count of solved cases: 3
CCCC(C)O (stereo unspecified) [pentan-2-ol] yielded isobaric coefficient of expansion of 0.000957 1/K

Form: molecule = CCC(O)CC [3-pentanol] ; isobaric coefficient of expansion = 0.000983 1/K

get_value(item= CCO [ethanol] , readout=isobaric coefficient of expansion) returns 0.000988 1/K

Now consider the entry below.
Query CCCCCCCCCCO [decan-1-ol] yields isobaric coefficient of expansion of 0.000748 1/K

* * *

# isobaric coefficient of expansion per entry
Experiment: isobaric coefficient of expansion
Settings: 278.15 K; 20000 kPa; Liquid; DSC with Pressure Shift

Some solved entries appear below for comparison.
// field: isobaric coefficient of expansion; key: "CCO" ; value = 0.000948 1/K

// isobaric coefficient of expansion lookup, compound = "CCCO" , result: 0.000868 1/K

Form: compound = "CCC(O)CC" ; isobaric coefficient of expansion = 0.00085 1/K

New cases:
Sure, the documented isobaric coefficient of expansion for CCCC(C)O (stereo not given) is 0.000827 1/K

Notebook: "CCCCCCCCO" , isobaric coefficient of expansion read as 0.000755 1/K

Just so you know, measured isobaric coefficient of expansion for "CCCCCN" came out at 0.00102 1/K

"CCCCCCCCCO" yielded isobaric coefficient of expansion of 0.000759 1/K

Lab note: "CCCCCCCO" gave isobaric coefficient of expansion of 0.000754 1/K

Looking up "CCCCCO" , I found its isobaric coefficient of expansion recorded as 0.000805 1/K

isobaric coefficient of expansion recorded for this compound, "CCCCCCO" , is 0.000778 1/K

* * *

Experiment: isobaric coefficient of expansion
Settings: 338.15 K; 45000 kPa; Liquid; DSC with Pressure Shift
The compounds listed here are annotated with their isobaric coefficient of expansion.

Study these solved cases before continuing.
Value of measured isobaric coefficient of expansion for the entry "CCC(O)CC" : 0.000953 1/K

Per the records, this compound ( "CCCCCCCO" ) has isobaric coefficient of expansion equal to 0.000754 1/K

So for "CCCCCCO" , the logged isobaric coefficient of expansion turned out to be 0.000776 1/K

Others:
# isobaric coefficient of expansion of "CCCCCO" = 0.000786 1/K

The recorded isobaric coefficient of expansion for CCCC(C)O (stereo unspecified) is 0.00092 1/K
